system: HCC-2998 colon; assay: NCI tumour cell line growth inhibition, 48 h
Field: TGI. Provide a value for each of the compounds that follow.

Query: # TGI lookup, item COc1ccc(-n2cc(-c3ccc(F)cc3)[nH]c2=O)cc1OC
Response: > 100 µM

Query: Which TGI is reported for this compound? CCOc1ccnc2c(OC)c(C)c3nc4ccccc4nc3c12
Response: > 100 µM

Query: Tell me the measured TGI of CC(C)[Si](CC1=CCCCC12C(=O)N(COCC[Si](C)(C)C)c1ccccc12)(C(C)C)C(C)C (centres undefined) , please.
Response: > 100 µM

Query: Quick one: TGI for CC1(C)CC(=O)C(/C=N/c2nc(-c3cccc([N+](=O)[O-])c3)cs2)=C(O)C1 ?
Response: 29.1 µM

Query: Param item = COc1ccc(Nc2cnc3cc(N)ccc3n2)cc1OC ; retrieve measured TGI.
Response: > 100 µM

Query: If you can, please state the reported TGI value of CCOC(=O)C(C(=O)OCC)C(=S)NC1OC(COC(C)=O)C(OC(C)=O)C(OC(C)=O)C1OC(C)=O (centres undefined) .
Response: > 100 µM

Query: Need TGI, item O=C(/C=C/c1ccco1)c1cccc(Nc2nc(Nc3ccccc3)nc(Nc3ccccc3)n2)c1
Response: > 100 µM

Query: Sample O=[N+]([O-])c1cnccc1-n1nnc2ccccc21 — what was its TGI?
Response: 51.6 µM

Query: So what's the measured TGI for this one? COc1ccc2c(C(=O)NCCCCCC(=O)O)cc3cc4c(cc3c2c1)OCO4
Response: > 100 µM

Query: Quick one: TGI for C[C@@H](Br)[C@@H]1CC[C@H]2c3[nH]c4ccccc4c3CCN2C1 ?
Response: 31.3 µM

Query: GET /values?readout=TGI&item= CSc1nc(NC2OC(CO)C(O)C(O)C2O)c(N)c(=O)[nH]1 (centres undefined)
Response: > 100 µM

Query: Which value of TGI has been reported for CC(=O)Oc1ccc(C2SCc3nc4ccccc4n32)cc1 (centres undefined) in the records?
Response: 69 µM

Query: Request the reported TGI associated with COc1cc(/C=C/C(=O)c2ccc(SC)cc2)cc(OC)c1OC
Response: 33.2 µM

Query: # lookup: TGI of O=C1COCCN1c1ccc(NCc2cn(Cc3ccc(F)cc3)c3ccccc23)cc1
Response: 51.7 µM

Query: Field request: TGI | item: CC(=O)NC1C(OCc2ccccc2)OC(COC(=O)CCCCCCCCCCNC(=O)CCNc2ccc([N+](=O)[O-])c3[nH]c4ccc(O)cc4c(=O)c23)C(O)C1OC(C)C(=O)N[C@H](C(=O)N[C@H](CCC(=O)O)C(N)=O)C(C)C (some centres undefined)
Response: > 100 µM

Query: Form field: reported TGI of Clc1ccc2c(NCCCNCc3ccc4c(c3)OCO4)ccnc2c1
Response: 5.25 µM

Query: What does the data say about its TGI? Entry: Cc1cccc(C)c1NC(=O)/C(CC(=O)CC(c1ccccc1)c1c(O)c2ccccc2oc1=O)=N/O (centres undefined)
Response: > 100 µM

Query: Given the entry COc1ccc(S(=O)(=O)Nc2c(/C=C\c3cc(OC)c(OC)c(OC)c3)ccc(OC)c2O)cc1OC , report its measured TGI.
Response: 5.57 µM

Query: Recorded TGI for COc1ccc2c(c1)[n+](=O)c(C(=O)C/C(=N\NC(=O)C[N+](C)(C)C)C(=O)Nc1cc(Cl)ccc1Cl)c(C)n2O , please?
Response: > 100 µM

Query: Can you look up the measured TGI of COC(=O)/C=C/[C@H]1[C@H](C)N1S(=O)(=O)c1ccc(C)cc1 (some centres undefined) for me?
Response: > 100 µM

Query: Recorded TGI for Nc1c(C(=O)Nc2cccc3ccccc23)sc2nc3c(cc12)CCCCCC3 , please?
Response: > 50 µM

Query: I have this compound here, Nc1nc(=O)n(C2CC(O)C(CO)O2)c2nc(-c3ccc(-c4ccccc4)cc3)cnc12 (centres undefined) , and I need its recorded TGI.
Response: > 100 µM

Query: Tell me the measured TGI of O=C(Nc1ccccn1)c1cc2c(cc1Cl)Sc1nccn1S2(=O)=O , please.
Response: 30.9 µM

Query: Name the reported TGI value associated with the compound CCN(CC)[C@@H]1c2cc3c(cc2C(c2cc(OC)c(O)c(OC)c2)C2C(=O)CO[C@@H]21)OCO3 (some centres undefined)
Response: > 100 µM

Query: Look at this compound and give its reported TGI. Cn1c(=O)c2nc3sc4ccccc4c(=N)n3c2n(C)c1=O
Response: > 100 µM

Query: Sample O=C(c1ccccc1)C(c1ccccc1)C1(O)C(=O)Nc2ccc(Br)cc21 (centres undefined) — what was its TGI?
Response: > 100 µM

Query: TGI lookup needed for O=C1OC(/C=C/c2ccccc2)C(=O)C1=O (centres undefined) , thanks.
Response: > 100 µM

Query: // TGI lookup, key: COc1cc(-c2nc3cc(Cl)c(Cl)cc3[nH]2)ccc1OCC(=O)N=Nc1c(O)[nH]c2ccccc12
Response: 1.43 µM

Query: Endpoint output: TGI of CCOC1=NC(C(F)(F)F)(C(F)(F)F)N=C(/N=C(/N)N(C)C(C(C)C)P(=O)(OC(C)C)OC(C)C)O1 (centres undefined) . Value?
Response: > 100 µM

Query: What value of TGI has been reported for the following compound? CCN(CC)C(=O)N1CN(c2ccccc2)C2(CCN(CCCC3(c4ccc(F)cc4)OCCO3)CC2)C1=O
Response: 28.7 µM

Query: Can you share its TGI? I mean this compound: O=C1N(c2ccccc2)N=C2c3ccncc3C3=NN(c4ccccc4)C(=O)C123 (centres undefined)
Response: > 88 µM

Query: Give the measured TGI of Cc1cnc2n(c1=O)Cc1ccccc1CO2 .
Response: 31.4 µM

Query: Form field: reported TGI of COC(=O)CC(c1ccccc1)C(C#N)(OP1(=O)OC(c2ccccc2)C(C)N1C)c1ccccc1 (centres undefined)
Response: > 100 µM

Query: Recorded TGI of CCN(CC)CCCNc1c2cc(OC)ccc2nc2cccc([N+](=O)[O-])c12 , please.
Response: 0.192 µM

Reference for the values: PubChem BioAssay (NCI)
